Tested on: Myzus persicae
Assay: Activity against Myzus persicae (green peach aphid), feeding/contact activity
Format: in vivo
Conditions: foliar, 144 h, application rate 200 ppm, 6 days after infestation, sunflower leaf discs, mixed ages
readout-type: mortality at 200 ppm

Use the examples below as a reference point.
C[C@H](Nc1ncnc2c(C(F)(F)F)cc(Cl)cc12)c1ncnn1C1=NN(C)C(=O)CC1
≥ 80%
C[C@H](Nc1ncnc2c(C(F)(F)F)cc(Cl)cc12)c1ncnn1-c1ccc(=O)n(C)n1 [P2]
≥ 80%

Lab note: next compound to report on.
// mortality at 200 ppm lookup, compound = CCn1nc(-n2ncnc2[C@H](C)N(C)c2ncnc3c(Cl)cc(C(F)(F)F)cc23)ccc1=O , result: ≥ 80%

----------
Assignment: determine reported percent control (mortality, anti-feedant effect or growth inhibition) at 200 ppm for the given compounds.
Tested on: Chilo suppressalis
Assay: Activity against Chilo suppressalis (striped rice stemborer), artificial diet, L2 larvae
Assay type: in vivo
Conditions: 144 h, application rate 200 ppm, 6 days after infestation, vs untreated, read-out: control in at least one of the three categories (mortality, anti-feedant effect, or growth inhibition)

Use the examples below as a reference point.
C[C@H](Nc1ncnc2c(C(F)(F)F)cc(Cl)cc12)c1ncnn1C1=NN(C)C(=O)CC1
≥ 80%
C[C@@H](c1ncnn1C1=NN(C)C(=O)CC1)N(C)c1ncnc2c(I)cc(Cl)cc12
≥ 80%
CCn1nc(-n2ncnc2[C@H](C)N(C)c2ncnc3c(C(F)(F)F)cc(Cl)cc23)ccc1=O
≥ 80%
CCn1nc(-n2ncnc2[C@H](C)Nc2ncnc3c(Cl)cc(C(F)(F)F)cc23)ccc1=O
≥ 80%

Hi there! I need percent control (mortality, anti-feedant effect or growth inhibition) at 200 ppm for each item below, if you can.
1. C[C@H](Nc1nc(Cl)nc2c(Cl)cc(C(F)(F)F)cc12)c1ncnn1-c1ccc(=O)n(C)n1
2. CC(Nc1ncnc2c(Cl)cc(C(F)(F)F)cc12)c1nccnc1-c1ccc(=O)n(C)n1 (centres unmarked)
3. C[C@@H](c1nccnc1-c1ccc(=O)n(C)n1)N(C)c1ncnc2c(C(F)(F)F)cc(Cl)cc12 (single isomer, unassigned)
4. CC(c1nccnc1-c1ccc(=O)n(C)n1)N(C)c1ncnc2c(Cl)cc(C(F)(F)F)cc12 (centres unmarked)

Result:
≥ 80%
≥ 80%
≥ 80%
≥ 80%

The measured values listed here are drawn from patent US20250049033A1.
